# Assay System: hERG potassium channel (Homo sapiens, UniProt Q12809, T623A)
# Sequence (Q12809 whole entry T623A): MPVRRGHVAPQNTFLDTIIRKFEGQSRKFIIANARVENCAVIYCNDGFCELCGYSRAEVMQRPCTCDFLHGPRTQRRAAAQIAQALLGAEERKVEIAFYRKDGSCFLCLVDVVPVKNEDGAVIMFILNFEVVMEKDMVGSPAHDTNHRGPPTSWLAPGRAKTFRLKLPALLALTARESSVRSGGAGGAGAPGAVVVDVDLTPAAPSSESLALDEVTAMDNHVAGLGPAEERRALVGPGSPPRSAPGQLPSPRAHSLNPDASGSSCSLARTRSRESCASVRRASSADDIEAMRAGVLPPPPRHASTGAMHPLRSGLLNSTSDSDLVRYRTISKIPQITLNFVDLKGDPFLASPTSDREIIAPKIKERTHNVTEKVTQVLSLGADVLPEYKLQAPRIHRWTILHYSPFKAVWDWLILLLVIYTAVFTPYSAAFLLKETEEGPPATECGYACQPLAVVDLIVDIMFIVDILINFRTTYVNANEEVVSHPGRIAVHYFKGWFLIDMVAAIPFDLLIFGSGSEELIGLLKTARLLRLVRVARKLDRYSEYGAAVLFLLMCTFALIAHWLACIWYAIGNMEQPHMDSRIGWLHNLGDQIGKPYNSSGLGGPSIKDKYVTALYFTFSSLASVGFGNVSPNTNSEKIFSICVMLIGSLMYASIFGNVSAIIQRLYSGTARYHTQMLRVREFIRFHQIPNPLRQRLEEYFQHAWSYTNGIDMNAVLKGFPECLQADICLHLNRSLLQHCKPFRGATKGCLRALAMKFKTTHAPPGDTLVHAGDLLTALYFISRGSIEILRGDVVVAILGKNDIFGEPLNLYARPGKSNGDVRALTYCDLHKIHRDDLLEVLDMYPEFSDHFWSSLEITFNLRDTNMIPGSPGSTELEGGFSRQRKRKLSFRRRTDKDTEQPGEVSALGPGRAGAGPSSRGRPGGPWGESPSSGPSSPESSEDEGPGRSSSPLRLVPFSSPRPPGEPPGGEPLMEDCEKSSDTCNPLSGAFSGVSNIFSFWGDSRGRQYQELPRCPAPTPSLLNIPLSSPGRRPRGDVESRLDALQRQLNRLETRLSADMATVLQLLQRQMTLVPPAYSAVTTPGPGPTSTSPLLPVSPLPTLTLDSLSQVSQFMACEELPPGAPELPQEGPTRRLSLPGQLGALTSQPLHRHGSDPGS
# Test Method Notes: whole-cell patch clamp, inhibition at […]
# Format: cell-based
Assay Metric: inhibition at 1 µM (%)
Respond with the bare value in %.

Endpoint output: inhibition at 1 µM of CC1=C(O)C(=O)C=C2C1=CC=C1[C@@]2(C)CC[C@@]2(C)[C@@H]3C[C@](C)(C(=O)O)CC[C@]3(C)CC[C@]12C . Value?
36.2

====

# Assay System: hERG potassium channel (Homo sapiens, UniProt Q12809, S624A)
# Sequence (Q12809 whole entry S624A): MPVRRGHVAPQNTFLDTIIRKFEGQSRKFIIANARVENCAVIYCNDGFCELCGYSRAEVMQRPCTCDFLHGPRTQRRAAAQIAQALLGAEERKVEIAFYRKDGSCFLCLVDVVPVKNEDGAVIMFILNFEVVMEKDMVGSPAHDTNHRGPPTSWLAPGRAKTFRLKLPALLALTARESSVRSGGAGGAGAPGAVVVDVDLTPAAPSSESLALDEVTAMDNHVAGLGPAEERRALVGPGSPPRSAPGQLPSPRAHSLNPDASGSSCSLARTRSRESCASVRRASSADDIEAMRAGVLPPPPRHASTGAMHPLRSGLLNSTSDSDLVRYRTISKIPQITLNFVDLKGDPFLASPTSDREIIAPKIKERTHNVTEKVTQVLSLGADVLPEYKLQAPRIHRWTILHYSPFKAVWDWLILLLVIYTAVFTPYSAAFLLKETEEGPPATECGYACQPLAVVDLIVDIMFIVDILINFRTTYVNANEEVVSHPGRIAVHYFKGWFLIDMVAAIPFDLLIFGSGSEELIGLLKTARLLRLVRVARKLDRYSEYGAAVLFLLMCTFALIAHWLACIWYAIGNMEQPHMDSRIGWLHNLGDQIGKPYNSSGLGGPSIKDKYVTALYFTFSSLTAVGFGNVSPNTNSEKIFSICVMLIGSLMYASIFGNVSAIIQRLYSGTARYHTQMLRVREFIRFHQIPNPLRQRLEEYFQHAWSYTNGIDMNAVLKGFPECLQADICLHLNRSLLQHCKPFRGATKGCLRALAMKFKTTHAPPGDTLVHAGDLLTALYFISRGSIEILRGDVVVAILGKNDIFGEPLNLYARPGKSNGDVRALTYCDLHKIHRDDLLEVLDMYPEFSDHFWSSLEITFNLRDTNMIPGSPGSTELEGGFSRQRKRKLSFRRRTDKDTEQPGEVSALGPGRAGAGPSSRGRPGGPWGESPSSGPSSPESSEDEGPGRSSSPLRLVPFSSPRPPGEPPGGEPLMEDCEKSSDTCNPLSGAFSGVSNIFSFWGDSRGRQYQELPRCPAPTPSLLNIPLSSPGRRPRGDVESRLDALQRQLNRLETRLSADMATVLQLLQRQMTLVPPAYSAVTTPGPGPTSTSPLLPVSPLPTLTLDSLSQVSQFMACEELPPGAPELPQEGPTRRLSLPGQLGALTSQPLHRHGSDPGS
# Test Method Notes: whole-cell patch clamp, concentration response
Assay Metric: IC50 (µM)
Respond with the bare value in µM.

Endpoint output: IC50 of CC1=C(O)C(=O)C=C2C1=CC=C1[C@@]2(C)CC[C@@]2(C)[C@@H]3C[C@](C)(C(=O)O)CC[C@]3(C)CC[C@]12C . Value?
4

All values here come from paper PMC6812191.
